biological target: Rhinovirus 3C protease (RVP) serotype-14 (Human rhinovirus 14, UniProt P03303); construct: Recombinant Rhinovirus 3C proteases from serotypes 14, 16, 2 or 89 were prepared; made in house; assay: Inhibition of Rhinovirus Protease, serotype 14 (FRET assay); type: biochemical; settings: read-out: kobs/I
Sequence (P03303 1538-1719): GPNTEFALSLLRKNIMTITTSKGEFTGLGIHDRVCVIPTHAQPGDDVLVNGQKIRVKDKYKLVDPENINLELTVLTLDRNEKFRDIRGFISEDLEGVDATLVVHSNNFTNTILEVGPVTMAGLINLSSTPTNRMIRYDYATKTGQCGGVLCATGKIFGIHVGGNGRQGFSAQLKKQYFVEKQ
Collected kinact/KI values appear next to each entry.
READOUT_LABEL: kinact/KI (M⁻¹ s⁻¹)

[[record]]
molecular_string = "CCSC(=O)N[C@@H](CC(C)C)C(=O)N(C)[C@@H](Cc1ccccc1)C(=O)N[C@H](/C=C/C(=O)N1CCc2ccccc21)CCC(N)=O"
test_target = "Rhinovirus 3C protease (RVP) serotype-14 (Human rhinovirus 14, UniProt P03303)"
measurement = 3820

[[record]]
molecular_string = "CCOC(=O)/C=C/[C@H](CCC(N)=O)NC(=O)[C@H](Cc1ccccc1)N(C)C(=O)[C@H](CC(C)C)NC(=O)SCC(C)C"
test_target = "Rhinovirus 3C protease (RVP) serotype-14 (Human rhinovirus 14, UniProt P03303)"
measurement = 12300

[[record]]
molecular_string = "CCSC(=O)N[C@@H](CC(C)C)C(=O)N(C)[C@@H](Cc1ccccc1)C(=O)N[C@H](/C=C1\\CCOC1=O)CCC(N)=O"
test_target = "Rhinovirus 3C protease (RVP) serotype-14 (Human rhinovirus 14, UniProt P03303)"
measurement = 6880

[[record]]
molecular_string = "CN(C(=O)[C@H](CCc1ccccc1)NC(=O)SCc1ccccc1)[C@@H](Cc1ccccc1)C(=O)N[C@H](/C=C1\\CCOC1=O)CCC(N)=O"
test_target = "Rhinovirus 3C protease (RVP) serotype-14 (Human rhinovirus 14, UniProt P03303)"
measurement = 41800

[[record]]
molecular_string = "CC(C)C[C@H](NC(=O)SC1CCCC1)C(=O)N(C)[C@@H](Cc1ccccc1)C(=O)N[C@H](/C=C/C(=O)OCc1ccccc1)CCC(N)=O"
test_target = "Rhinovirus 3C protease (RVP) serotype-14 (Human rhinovirus 14, UniProt P03303)"
measurement = 15400

[[record]]
molecular_string = "CCOC(=O)/C=C/[C@H](CCC(N)=O)NC(=O)[C@H](Cc1ccc(C)cc1)N(C)C(=O)[C@H](CCc1ccccc1)NC(=O)SCc1ccccc1"
test_target = "Rhinovirus 3C protease (RVP) serotype-14 (Human rhinovirus 14, UniProt P03303)"
measurement = 356000

[[record]]
molecular_string = "CCOC(=O)/C=C/[C@H](CCC(N)=O)NC(=O)[C@H](Cc1ccccc1)N(C)C(=O)[C@H](CC(C)C)NC(=O)SCC1CCCCC1"
test_target = "Rhinovirus 3C protease (RVP) serotype-14 (Human rhinovirus 14, UniProt P03303)"
measurement = 12100


----------
target: Rhinovirus 3C protease (RVP) serotype-14 (Human rhinovirus 14, UniProt P03303); construct: Recombinant Rhinovirus 3C proteases from serotypes 14, 16, 2 or 89 were prepared; made in house; test: Inhibition of Rhinovirus Protease, serotype 14 (FRET assay); assay type: biochemical; conditions: read-out: kobs/I
READOUT_LABEL: kinact/KI (M⁻¹ s⁻¹)

[[record]]
molecular_string = "CCOC(=O)/C=C/[C@H](CCC(N)=O)NC(=O)[C@H](Cc1ccccc1)N(C)C(=O)[C@H](CC(C)C)NC(=O)c1cc(C)on1"
readout_label = "kinact/KI"
measurement = 108000

[[record]]
molecular_string = "CCSC(=O)N[C@@H](CC(C)C)C(=O)N(C)[C@@H](Cc1ccccc1)C(=O)N[C@H](/C=C/C(=O)N1CCOC1=O)CCC(N)=O"
readout_label = "kinact/KI"
measurement = 750000

[[record]]
molecular_string = "CCOC(=O)/C=C/[C@H](CCC(N)=O)NC(=O)Cn1c(-c2ccccc2)ncc(NC(=O)OCc2ccccc2)c1=O"
readout_label = "kinact/KI"
measurement = 163

[[record]]
molecular_string = "CCOC(=O)/C(C)=C/[C@H](CCC(N)=O)NC(=O)[C@H](Cc1ccc(C)cc1)N(C)C(=O)[C@H](CCc1ccccc1)NC(=O)SCc1ccccc1"
readout_label = "kinact/KI"
measurement = 56400

[[record]]
molecular_string = "CCOC(=O)/C=C/[C@H](CCC(N)=O)NC(=O)[C@H](Cc1ccccc1)N(C)C(=O)[C@H](CC(C)C)NC(=O)SC(C)C"
readout_label = "kinact/KI"
measurement = 18200

[[record]]
molecular_string = "CCOC(=O)/C=C/[C@H](CCC(N)=O)NC(=O)[C@H](Cc1ccccc1)N(C)C(=O)OCc1ccccc1"
readout_label = "kinact/KI"
measurement = 52

